Recorded Median Concentration of All Samples [% of r.c.] for the following molecules
test: Plasma concentrations in patients on oral antitumor therapy (LC-MS); type: in vivo, human; conditions: patient plasma, all samples; r.c. = respective cmin
ASSAY METRIC: Median Concentration of All Samples [% of r.c.]

{"columns": ["MOLECULE", "OBSERVED"],
 "data": [
  ["COc1cc2nccc(Oc3ccc(NC(=O)Nc4cc(C)on4)c(Cl)c3)c2cc1OC", "41.4 % of r.c."],
  ["CNC(=O)c1ccc(N2C(=S)N(c3ccc(C#N)c(C(F)(F)F)c3)C(=O)C2(C)C)cc1F [Enzalutamide]", "120.1 % of r.c."],
  ["C[C@]12CC[C@H](O)CC1=CC[C@@H]1[C@@H]2CC[C@]2(C)C(c3cccnc3)=CC[C@@H]12", "229.0 % of r.c."],
  ["CC(C)(C)c1nc(-c2cccc(NS(=O)(=O)c3c(F)cccc3F)c2F)c(-c2ccnc(N)n2)s1", "722.3 % of r.c."],
  ["COc1cc2nccc(Oc3ccc(NC(=O)C4(C(=O)Nc5ccc(F)cc5)CC4)cc3)c2cc1OC [Cabozantinib]", "153.3 % of r.c."],
  ["O=C(c1cc(Cc2n[nH]c(=O)c3ccccc23)ccc1F)N1CCN(C(=O)C2CC2)CC1", "287.6 % of r.c."],
  ["Cc1ccc(NC(=O)c2ccc(CN3CCN(C)CC3)cc2)cc1Nc1nccc(-c2cccnc2)n1", "168.9 % of r.c."],
  ["COc1cc2c(Nc3ccc(Br)cc3F)ncnc2cc1OCC1CCN(C)CC1", "86.7 % of r.c."],
  ["C=CC(=O)N1CCC[C@@H](n2nc(-c3ccc(Oc4ccccc4)cc3)c3c(N)ncnc32)C1", "110.1 % of r.c."],
  ["Cc1ccc(Nc2nccc(N(C)c3ccc4c(C)n(C)nc4c3)n2)cc1S(N)(=O)=O", "81.5 % of r.c."]
]}

====

Recorded Short-time stability (1h, 56°C) Accuracy [%] for the following compounds
test: Short-term stability in spiked pooled human plasma (bench-top, 4 °C, 56 °C); details: validation standard 2xLLOV
ASSAY METRIC: Short-time stability (1h, 56°C) Accuracy [%] (%)

{"columns": ["COMPOUND", "RESULT UNIT", "OBSERVED"],
 "data": [
  ["COc1cc2ncnc(Nc3ccc(F)c(Cl)c3)c2cc1OCCCN1CCOCC1", "%", 46.0],
  ["Cn1cnc2c(F)c(Nc3ccc(Br)cc3F)c(C(=O)NOCCO)cc21", "%", 55.9],
  ["CNC(=O)c1ccc(N2C(=S)N(c3ccc(C#N)c(C(F)(F)F)c3)C(=O)C2(C)C)cc1F [Enzalutamide]", "%", 59.4],
  ["C[C@]12CC[C@H](O)CC1=CC[C@@H]1[C@@H]2CC[C@]2(C)C(c3cccnc3)=CC[C@@H]12", "%", 46.5]
]}

====

test: Short-term stability in spiked pooled human plasma (bench-top, 4 °C, 56 °C); conditions: validation standard 2xLLOV
ASSAY METRIC: Short-time stability (24h, 4°C, without daylight) Accuracy [%] (%)

{"columns": ["MOLECULE", "OBSERVED"],
 "data": [
  ["Cc1cn(-c2cc(NC(=O)c3ccc(C)c(Nc4nccc(-c5cccnc5)n4)c3)cc(C(F)(F)F)c2)cn1", 101.2],
  ["COc1cc2nccc(Oc3ccc(NC(=O)NC4CC4)c(Cl)c3)c2cc1C(N)=O", 103.4],
  ["O=C(c1ccc(F)c(F)c1Nc1ccc(I)cc1F)N1CC(O)([C@@H]2CCCCN2)C1", 100.9],
  ["NC(=O)c1cccc2cn(-c3ccc([C@@H]4CCCNC4)cc3)nc12", 96.9],
  ["CS(=O)(=O)c1ccc(C(=O)Nc2ccc(Cl)c(-c3ccccn3)c2)c(Cl)c1", 105.0],
  ["Cc1c(C(=O)Nc2ccc(N3C[C@@H](C)O[C@@H](C)C3)nc2)cccc1-c1ccc(OC(F)(F)F)cc1", 99.1],
  ["Nc1cccc2c1C(=O)N(C1CCC(=O)NC1=O)C2=O (centres unmarked) [Pomalidomide]", 94.1],
  ["CCOc1cc2ncc(C#N)c(Nc3ccc(OCc4ccccn4)c(Cl)c3)c2cc1NC(=O)/C=C/CN(C)C", 79.9]
]}
